- Test Protocol: Cytotoxicity against rat C6 cells assessed as cell viability at 20 uM incubated for 24 hrs by MTT assay relative to control
- Format: cell-based
- Test Context: read-out: Activity
What viability at 24 h, 20 µM was measured for each of the following?
The figure you give is taken to be in %; do not add the unit.

Q. # lookup: viability at 24 h, 20 µM of O=C1N(CCc2ccccc2)C(=O)[C@@]2(O)CCCN12
A. 106

Q. // same read-out, input: O=C1N(CCc2ccccc2)C(=O)[C@]2(O)CCCN12
A. 91.2

Q. Same thing, different compound: C=CCN1C(=O)[C@]2(O)CCCN2C1=S
A. 106

Q. Consider next the compound O=C1N(CCc2ccccc2)C(=S)N2CCC[C@@]12O in the same way.
A. 112

Q. Queued: O=C1C2CCCN2C(=S)N1Cc1ccccc1 (stereo not drawn)
A. 109

Q. Please do the same for C=CCN1C(=O)N2CCC[C@]2(O)C1=O as well.
A. 100

Q. Cool, now CSC1=NC[C@]2(S1)C(=O)Nc1ccccc12
A. 88.2

Q. Entry NC(=O)NCCc1ccccc1 please
A. 107

Q. Please answer likewise for C=CCN1C(=O)[C@@]2(O)CCCN2C1=S
A. 114

Q. Now this one: CCCCC/C=C/C(=O)CCc1ccc(O)c(OC)c1
A. 111

Q. Continue with O=C1[C@@H]2CCCN2C(=O)N1CCc1ccccc1
A. 111

Q. Follow-up entry: C=CCN1C(=O)N2CCC[C@@]2(O)C1=O
A. 97.3

Q. Now give it for O=C1N(CCc2ccccc2)C(=S)N2CCC[C@]12O too.
A. 108

From: ChEMBL document CHEMBL4414621
